Data provenance: patent US20230365662A1

Consider the following binders; for each one, report its OD450nm.
target: HRgpA-6H (Porphyromonas gingivalis) (UniProt P28784); assay: ELISA, FASEBA Fab on coated HRgpA-6H

The binder listed as KB001 mouse Fab VL S30F (Fab, V domains shown) VH: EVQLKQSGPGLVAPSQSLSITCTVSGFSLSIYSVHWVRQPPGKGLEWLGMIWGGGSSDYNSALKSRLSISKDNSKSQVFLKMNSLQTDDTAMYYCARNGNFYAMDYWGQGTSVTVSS VL: QIVLTQSPAIMSASLGERVTMTCTASSSVFSSFLHWYQQKPGSSPQLWIYSTSNLASGVPARFSGSGSGTSYSLTISSMEAEDAATYYCHQYHHSPYIYTFGGGTKLEIK has a reported OD450nm of 0.911

The binder listed as KB001 mouse Fab VL F33N (Fab, V domains shown) VH: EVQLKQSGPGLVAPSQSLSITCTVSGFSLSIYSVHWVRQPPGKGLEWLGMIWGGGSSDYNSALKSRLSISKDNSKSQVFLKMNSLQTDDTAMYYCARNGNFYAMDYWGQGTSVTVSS VL: QIVLTQSPAIMSASLGERVTMTCTASSSVSSSNLHWYQQKPGSSPQLWIYSTSNLASGVPARFSGSGSGTSYSLTISSMEAEDAATYYCHQYHHSPYIYTFGGGTKLEIK has a reported OD450nm of 0.64
